For each of the compounds below, state its tissue uptake at 120 h.
- Test Summary: in vivo
- Design: species or system mice
- Recorded Conditions: male, NOD.Cg-Rag1tm1Mom Il2rgtm1Wjl/SzJ (NRG), mouse, iv, total radioactivity, Biodistribution: Spleen
Where a SMILES comes first, the peptide text is derived from it. Bridges are numbered along the chain shown (N, C = ends). [ ]: non-standard residue; d: D form. The star is where a group is joined. X3 = O=C(O)CN1CCN(CC(=O)O)CCN(CC(=O)N[C@@H](CS(=O)(=O)O)C(=O)N[C@@H](CCCCNC(=O)CCCc2ccc(Br)cc2)C(=O)*)CCN(CC(=O)O)CC1; X1 = O=C(O)CN1CCN(CC(=O)O)CCN(CC(=O)N[C@@H](CS(=O)(=O)O)C(=O)N[C@@H](CCCCNC(=O)CCCc2ccc(I)cc2)C(=O)*)CCN(CC(=O)O)CC1; 2Nal = N[C@@H](Cc1ccc2ccccc2c1)C(=O)O; Lys(iPr) = CC(C)NCCCC[C@H](N)C(=O)O
Give the value in %ID/g but do not write %ID/g after it.

Supply tissue uptake at 120 h value. Item: CC(C)NCCCC[C@H](NC(=O)[C@H]1CCC(=O)N[C@@H](CCCCNC(=O)[C@H](CCCCNC(=O)CCCc2ccc(I)cc2)NC(=O)[C@H](CS(=O)(=O)O)NC(=O)CN2CCN(CC(=O)O)CCN(CC(=O)O)CCN(CC(=O)O)CC2)C(=O)N[C@@H](Cc2ccc(O)cc2)C(=O)N[C@@H](CCCCNC(C)C)C(=O)N[C@H](CCCNC(=N)N)C(=O)N[C@@H](Cc2ccc3ccccc3c2)C(=O)N[C@H](C)C(=O)N1)C(N)=O [[^177Lu]Lu-BL34L11, metal not drawn] (K(X1)Y[Lys(iPr)][dR][2Nal][dA][dE][Lys(iPr)]-NH2; lactam N-7)
1.86

Please report tissue uptake at 120 h for the following compound: CC(C)NCCCC[C@H](NC(=O)[C@H]1CCC(=O)N[C@@H](CCCCNC(=O)[C@H](CCCCNC(=O)CCCc2ccc(Br)cc2)NC(=O)[C@H](CS(=O)(=O)O)NC(=O)CN2CCN(CC(=O)O)CCN(CC(=O)O)CCN(CC(=O)O)CC2)C(=O)N[C@@H](Cc2ccc(O)cc2)C(=O)N[C@@H](CCCCNC(C)C)C(=O)N[C@H](CCCNC(=N)N)C(=O)N[C@@H](Cc2ccc3ccccc3c2)C(=O)N[C@H](C)C(=O)N1)C(N)=O [[^177Lu]Lu-BL34L20, metal not drawn] (K(X3)Y[Lys(iPr)][dR][2Nal][dA][dE][Lys(iPr)]-NH2; lactam N-7)
0.77

* * *

Assign tissue uptake at 3 h to each entry below.
- Test Summary: in vivo
- Set-up: species or system mice
- Recorded Conditions: male, NOD.Cg-Rag1tm1Mom Il2rgtm1Wjl/SzJ (NRG), mouse, iv, total radioactivity, Biodistribution: Adrenals
Where a SMILES comes first, the peptide text is derived from it. Bridges are numbered along the chain shown (N, C = ends). [ ]: non-standard residue; d: D form. The star is where a group is joined. X4 = O=C(O)CN1CCN(CC(=O)O)CCN(CC(=O)N[C@@H](CS(=O)(=O)O)C(=O)NCCCC[C@H](NC(=O)CNC(=O)CCCc2ccc(Cl)cc2)C(=O)*)CCN(CC(=O)O)CC1; X3 = O=C(O)CN1CCN(CC(=O)O)CCN(CC(=O)N[C@@H](CS(=O)(=O)O)C(=O)N[C@@H](CCCCNC(=O)CCCc2ccc(Br)cc2)C(=O)*)CCN(CC(=O)O)CC1; X5 = O=C(O)CN1CCN(CC(=O)O)CCN(CC(=O)N[C@@H](CS(=O)(=O)O)C(=O)N[C@@H](CCCCNC(=O)CCCc2ccc(Cl)cc2)C(=O)*)CCN(CC(=O)O)CC1; X1 = O=C(O)CN1CCN(CC(=O)O)CCN(CC(=O)N[C@@H](CS(=O)(=O)O)C(=O)N[C@@H](CCCCNC(=O)CCCc2ccc(I)cc2)C(=O)*)CCN(CC(=O)O)CC1; 2Nal = N[C@@H](Cc1ccc2ccccc2c1)C(=O)O; Lys(iPr) = CC(C)NCCCC[C@H](N)C(=O)O
Report only the number, with the unit %ID/g understood.

Identify the reported tissue uptake at 3 h for the following entry. CC(C)NCCCC[C@H](NC(=O)[C@H]1CCC(=O)N[C@@H](CCCCNC(=O)[C@H](CCCCNC(=O)CCCc2ccc(I)cc2)NC(=O)[C@H](CS(=O)(=O)O)NC(=O)CN2CCN(CC(=O)O)CCN(CC(=O)O)CCN(CC(=O)O)CC2)C(=O)N[C@@H](Cc2ccc(O)cc2)C(=O)N[C@@H](CCCCNC(C)C)C(=O)N[C@H](CCCNC(=N)N)C(=O)N[C@@H](Cc2ccc3ccccc3c2)C(=O)N[C@H](C)C(=O)N1)C(N)=O [[^68Ga]Ga-BL34L11, metal not drawn] (K(X1)Y[Lys(iPr)][dR][2Nal][dA][dE][Lys(iPr)]-NH2; lactam N-7)
2.34

Provide only the value of recorded tissue uptake at 3 h for CC(C)NCCCC[C@H](NC(=O)[C@H]1CCC(=O)N[C@@H](CCCCNC(=O)[C@H](CCCCNC(=O)[C@H](CS(=O)(=O)O)NC(=O)CN2CCN(CC(=O)O)CCN(CC(=O)O)CCN(CC(=O)O)CC2)NC(=O)CNC(=O)CCCc2ccc(Cl)cc2)C(=O)N[C@@H](Cc2ccc(O)cc2)C(=O)N[C@@H](CCCCNC(C)C)C(=O)N[C@H](CCCNC(=N)N)C(=O)N[C@@H](Cc2ccc3ccccc3c2)C(=O)N[C@H](C)C(=O)N1)C(N)=O [[68Ga]Ga-BL34T1, metal not drawn] (K(X4)Y[Lys(iPr)][dR][2Nal][dA][dE][Lys(iPr)]-NH2; lactam N-7)
1.93

Look up tissue uptake at 3 h of CC(C)NCCCC[C@H](NC(=O)[C@H]1CCC(=O)N[C@@H](CCCCNC(=O)[C@H](CCCCNC(=O)CCCc2ccc(Cl)cc2)NC(=O)[C@H](CS(=O)(=O)O)NC(=O)CN2CCN(CC(=O)O)CCN(CC(=O)O)CCN(CC(=O)O)CC2)C(=O)N[C@@H](Cc2ccc(O)cc2)C(=O)N[C@@H](CCCCNC(C)C)C(=O)N[C@H](CCCNC(=N)N)C(=O)N[C@@H](Cc2ccc3ccccc3c2)C(=O)N[C@H](C)C(=O)N1)C(N)=O [[^68Ga]Ga-BL34L16, metal not drawn] (K(X5)Y[Lys(iPr)][dR][2Nal][dA][dE][Lys(iPr)]-NH2; lactam N-7) and report it.
0.7

Report tissue uptake at 3 h for CC(C)NCCCC[C@H](NC(=O)[C@H]1CCC(=O)N[C@@H](CCCCNC(=O)[C@H](CCCCNC(=O)CCCc2ccc(Br)cc2)NC(=O)[C@H](CS(=O)(=O)O)NC(=O)CN2CCN(CC(=O)O)CCN(CC(=O)O)CCN(CC(=O)O)CC2)C(=O)N[C@@H](Cc2ccc(O)cc2)C(=O)N[C@@H](CCCCNC(C)C)C(=O)N[C@H](CCCNC(=N)N)C(=O)N[C@@H](Cc2ccc3ccccc3c2)C(=O)N[C@H](C)C(=O)N1)C(N)=O [[^177Lu]Lu-BL34L20, metal not drawn] (K(X3)Y[Lys(iPr)][dR][2Nal][dA][dE][Lys(iPr)]-NH2; lactam N-7)
2.29
